System: SN12C renal
Assay: NCI-60 one-dose screen, 48 h (100 = growth as untreated, 0 = no growth, -100 = all killed)
Conditions: 10 µM unless noted
About 83,000 compounds went through this panel and 20% of them were active in at least one assay; those are over-represented in the sample as a whole. Calls of active or inactive are those of the source. The calls were made as follows: active = growth percent below 10; inactive = the rest.
Property Label: growth

[[record]]
compound = "CCN(CC)CCCNc1cc(OC)cc2nc3cc(Cl)ccc3nc12"
study_system = "SN12C renal"
result = "13.1% (inactive)"

[[record]]
compound = "CC[C@H](Nc1ncnc(N)c1C(N)=O)c1nc2cccc(NCc3ccc(C(=O)NO)cc3)c2c(=O)n1-c1ccccc1"
study_system = "SN12C renal"
result = "81.5% (inactive)"

[[record]]
compound = "Cc1cc(Nc2nc(N3CCOCC3)nc3ccccc23)n[nH]1"
study_system = "SN12C renal"
result = "60.2% (inactive)"

[[record]]
compound = "CCN(CC)Cc1cc(Nc2c3ccccc3nc3cc(Cl)ccc23)ccc1O"
study_system = "SN12C renal"
result = "-36.9% (active)"

[[record]]
compound = "Nc1nc(-c2ccc(F)cc2)cc(-c2cnn(-c3ccccc3)n2)n1"
study_system = "SN12C renal"
result = "111% (inactive)"

[[record]]
compound = "COCCOC(=O)C1=C(C)NC(=S)NC1c1ccc2c(c1)OCO2 (stereo unspecified)"
study_system = "SN12C renal"
result = "104% (inactive)"

[[record]]
compound = "C#Cc1nc2ccccc2c(=O)[nH]1"
study_system = "SN12C renal"
result = "-41.3% (active)"

[[record]]
compound = "O=S(=O)(Nc1ccc(F)c(Cl)c1)c1ccc(-c2cnc(C3CC3)o2)cc1"
study_system = "SN12C renal"
result = "49.9% (inactive)"

[[record]]
compound = "CC/C(Cc1ccccc1)=C(\\c1ccc(OCCN2CCCC2)cc1)c1ccc(OC(C)=O)cc1"
study_system = "SN12C renal"
result = "83.4% (inactive)"

[[record]]
compound = "CC1(C)OCC2OC3(C(=O)O)OC(C)(C)OC3C2O1 (stereo unspecified)"
study_system = "SN12C renal"
result = "106% (inactive)"

[[record]]
compound = "CN1CCOCCOCCOc2ccccc2NC(=O)c2nc(cnc2N)-c2ccc(cc2)S1(=O)=O"
study_system = "SN12C renal"
result = "64.7% (inactive)"

[[record]]
compound = "O=C(O)c1ccc(=O)[nH]n1"
study_system = "SN12C renal"
result = "94.3% (inactive)"

[[record]]
compound = "COc1c(Cl)cc(Cl)cc1Cl"
study_system = "SN12C renal"
result = "100% (inactive)"

[[record]]
compound = "O=C(O)c1cn(C2CC2)c2cc(N3CCN(Cc4nc5c(cnn5-c5ccc([N+](=O)[O-])cc5)c(=O)[nH]4)CC3)c(F)cc2c1=O"
study_system = "SN12C renal"
result = "95.2% (inactive)"

[[record]]
compound = "Cc1nc2nc(N)nc(N)c2nc1C"
study_system = "SN12C renal"
result = "93.1% (inactive)"

[[record]]
compound = "C/C(Cc1ccc(Cl)cc1)=C(\\c1ccc(OCCN2CCCCCC2)cc1)c1ccc(OC(=O)Cc2ccccc2)cc1"
study_system = "SN12C renal"
result = "68.7% (inactive)"

[[record]]
compound = "CSc1ncnc2c1ncn2C1CCCO1 (stereo unspecified)"
study_system = "SN12C renal"
result = "99.1% (inactive)"

[[record]]
compound = "CC(C)Oc1nc2c(c(=O)n(C)c(=O)n2C)n1C"
study_system = "SN12C renal"
result = "108% (inactive)"

[[record]]
compound = "O=C1Nc2ccccc2C12CC(c1ccccc1)=NN2 (stereo unspecified)"
study_system = "SN12C renal"
result = "68.6% (inactive)"

[[record]]
compound = "C[C@@H]1CCC2=C(CCC[C@]2(C)C(=O)O)[C@@]1(C)CCc1ccoc1"
study_system = "SN12C renal"
result = "89.6% (inactive)"

[[record]]
compound = "CCC(C)[C@@H]1NC(=O)[C@@H]2CCCN2C(=O)[C@H](Cc2ccccc2)NC(=O)[C@@H]2CCCN2C(=O)[C@H](Cc2ccccc2)NC(=O)[C@@H]2CCCN2C(=O)[C@H](Cc2ccccc2)NC1=O (stereo partly specified)"
study_system = "SN12C renal"
result = "102% (inactive)"

